system: STAPHYLOCOCCUS AUREUS A5177; test: In vitro antibacterial activity, MIC, BHI agar dilution; assay type: cell-based; details: S. aureus A5177, unit assumed
parameter_measured: MIC
Provide the measurement as a number trailed by its unit.

Using known records, supply MIC for CCC1OC(=O)C(C)C(=O)C(C)C(OC2OC(C)CC(N(C)C)C2O)C(C)(OC)CC(C)C2=NC(COCc3cc(OC)cc(OC)c3)CN3C(=O)OC1(C)C3C2C (stereo not shown) [Example 100] 0.1 µg/mL

Using known records, supply MIC for CC[C@H]1OC(=O)[C@H](C)C(=O)[C@H](C)[C@@H](O[C@@H]2O[C@H](C)C[C@H](N(C)C)[C@H]2O)[C@](C)(OC)C[C@@H](C)C2=N[C@H](COCc3ccccc3F)CN3C(=O)O[C@@]1(C)[C@H]3[C@H]2C [Example 102] 0.1 µg/mL

Using known records, supply MIC for CC[C@H]1OC(=O)[C@H](C)C(=O)[C@H](C)[C@@H](O[C@@H]2O[C@H](C)C[C@H](N(C)C)[C@H]2O)[C@](C)(OC)C[C@@H](C)C2=N[C@H](COCc3cccc(Br)c3)CN3C(=O)O[C@@]1(C)[C@H]3[C@H]2C [Example 105] 0.05 µg/mL

Using known records, supply MIC for CC[C@H]1OC(=O)[C@H](C)C(=O)[C@H](C)[C@@H](O[C@@H]2O[C@H](C)C[C@H](N(C)C)[C@H]2O)[C@](C)(OC)C[C@@H](C)C2=NC3CCCC3N3C(=O)O[C@@]1(C)[C@H]3[C@H]2C (stereo partly shown) [Example 107] 0.78 µg/mL

====

system: STREPTOCOCCUS BOVIS A-5169; test: In vitro antibacterial activity, MIC, BHI agar dilution; format: cell-based; details: S. bovis A-5169, unit assumed
parameter_measured: MIC (µg/mL)
Respond with the bare value in µg/mL.

Using known records, supply MIC for CC[C@H]1OC(=O)[C@H](C)C(=O)[C@H](C)[C@@H](O[C@@H]2O[C@H](C)C[C@H](N(C)C)[C@H]2O)[C@](C)(OC)C[C@@H](C)C2=N[C@H](COCc3ccccn3)CN3C(=O)O[C@@]1(C)[C@H]3[C@H]2C [Example 81] 0.05

Using known records, supply MIC for CC[C@H]1OC(=O)[C@H](C)C(=O)[C@H](C)[C@@H](O[C@@H]2O[C@H](C)C[C@H](N(C)C)[C@H]2O)[C@](C)(OC)C[C@@H](C)C2=NC3CN(Cc4ccccc4)CC3N3C(=O)O[C@@]1(C)[C@H]3[C@H]2C (stereo partly shown) [Example 110] 0.02

Using known records, supply MIC for CC[C@H]1OC(=O)[C@H](C)C(=O)[C@H](C)[C@@H](O[C@@H]2O[C@H](C)C[C@H](N(C)C)[C@H]2O)[C@](C)(OC)C[C@@H](C)C2=N[C@H](C)[C@H](C)N3C(=O)O[C@@]1(C)[C@H]3[C@H]2C [Example 10] 0.05

Using known records, supply MIC for CCC1OC(=O)C(C)C(=O)C(C)C(OC2OC(C)CC(N(C)C)C2O)C(C)(OC)CC(C)C2=NC(COCc3ccc(N(C)C)cc3)CN3C(=O)OC1(C)C3C2C (stereo not shown) [Example 76] 0.01
